The values you see were collected from PubChem BioAssay.

# Test Method Notes: viability of PTEN-null HCT116 cells – cell-based, HCT116 clonal line, CellTiter-Glo, pilot screen (AID 824);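 note: 0% = 20 µM Hyamine control and 100% = vehicle cell control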
# Experimental Setup: HCT116 PTEN-deleted viability, 60 h, at 10 µM, hits give low values
Inconclusive results are not listed.
Parameter Measured: viability (%)

Compound: CC(=O)c1ccc(OCC(O)CN2CCN(CCO)CC2)cc1 (configuration not stated)
Parameter Measured: viability
Unit Symbol: %
Assay Value: 101
--
Compound: CCOC(=O)C1=C(C)NC(=O)NC1c1ccc(Br)s1 (configuration not stated)
Parameter Measured: viability
Unit Symbol: %
Assay Value: 89.7
--
Compound: CCn1cc(C(=O)NC2CCCCC2)c(=O)c2cc(S(=O)(=O)N(C)C)ccc21
Parameter Measured: viability
Unit Symbol: %
Assay Value: 94.7
--
Compound: Cc1ccc(F)c(NC=C2C(=O)OC(C)(C)OC2=O)c1
Parameter Measured: viability
Unit Symbol: %
Assay Value: 92.8
--
Compound: COC(=O)CSc1nc2nc(C)cc(C)n2n1
Parameter Measured: viability
Unit Symbol: %
Assay Value: 91.2
--
Compound: COC(=O)Cn1c(CN2CCN(c3ccccc3F)CC2)nc2c1c(=O)n(C)c(=O)n2C
Parameter Measured: viability
Unit Symbol: %
Assay Value: 90.1
--
Compound: O=C(NCCC1=CCCCC1)C1CCN(S(=O)(=O)c2cccc3cccnc23)CC1
Parameter Measured: viability
Unit Symbol: %
Assay Value: 91.6
--
Compound: CCOC(=O)N1CCN(c2cc(=O)n(-c3ccccc3Cl)c(=O)[nH]2)CC1
Parameter Measured: viability
Unit Symbol: %
Assay Value: 105
--
Compound: CC(=O)c1ccc(OCC(O)CN2CCN(Cc3ccc4c(c3)OCO4)CC2)cc1 (configuration not stated)
Parameter Measured: viability
Unit Symbol: %
Assay Value: 92.4
--
Compound: COc1cccc(NC(=O)Cn2cc3c(n2)CCCCC3)c1
Parameter Measured: viability
Unit Symbol: %
Assay Value: 92
--
Compound: CCC(=O)Nc1sc2c(c1C(N)=O)CCN(C(C)=O)C2
Parameter Measured: viability
Unit Symbol: %
Assay Value: 105
--
Compound: Cc1nnc(Sc2nc3c(c(=O)[nH]c(=O)n3C)n2Cc2ccccc2Cl)s1
Parameter Measured: viability
Unit Symbol: %
Assay Value: 90.5
--
Compound: COC(=O)c1ccc(OCC(O)CN2CCC(C)CC2)cc1 (configuration not stated)
Parameter Measured: viability
Unit Symbol: %
Assay Value: 94.1
--
Compound: Clc1ccc(Cn2cc(/C=N/n3cnnc3)c3ccccc32)cc1
Parameter Measured: viability
Unit Symbol: %
Assay Value: 62.3
--
Compound: CCOC(=O)N1CCN(C(=O)c2ccc(N3C(=O)c4ccccc4C3=O)cc2)CC1
Parameter Measured: viability
Unit Symbol: %
Assay Value: 93.6
--
Compound: O=C(C1CCC(CNc2c(N3CCCCC3)c(=O)c2=O)CC1)N1CCc2ccccc2C1 (configuration not stated)
Parameter Measured: viability
Unit Symbol: %
Assay Value: 83.2
--
Compound: O=C1CC(Nc2ccc(N3CCOCC3)cc2)C(=O)N1c1cccc(C(F)(F)F)c1 (configuration not stated)
Parameter Measured: viability
Unit Symbol: %
Assay Value: 98.2
--
Compound: COc1cc(NC(=O)c2cc3c(C)nc4ccccc4c3o2)cc(OC)c1OC
Parameter Measured: viability
Unit Symbol: %
Assay Value: 86.7
--
Compound: COc1ccc(CCNC(=O)C2(C)CCC(=O)N2Cc2ccc3c(c2)OCO3)cc1OC (configuration not stated)
Parameter Measured: viability
Unit Symbol: %
Assay Value: 97.5
--
Compound: COc1ccc(C(=O)NCc2nc3ccccc3[nH]2)cc1OC
Parameter Measured: viability
Unit Symbol: %
Assay Value: 98.2
--
Compound: COc1ccc(C2CC(c3cccs3)n3nc(N)nc3N2)cc1 (configuration not stated)
Parameter Measured: viability
Unit Symbol: %
Assay Value: 82.2
--
Compound: COc1cccc(C2CC(c3ccc(C)cc3)n3nc(N)nc3N2)c1 (configuration not stated)
Parameter Measured: viability
Unit Symbol: %
Assay Value: 98.6
